Biological target: UniProt:Q9NWZ3
Sequence (Q9NWZ3 whole entry): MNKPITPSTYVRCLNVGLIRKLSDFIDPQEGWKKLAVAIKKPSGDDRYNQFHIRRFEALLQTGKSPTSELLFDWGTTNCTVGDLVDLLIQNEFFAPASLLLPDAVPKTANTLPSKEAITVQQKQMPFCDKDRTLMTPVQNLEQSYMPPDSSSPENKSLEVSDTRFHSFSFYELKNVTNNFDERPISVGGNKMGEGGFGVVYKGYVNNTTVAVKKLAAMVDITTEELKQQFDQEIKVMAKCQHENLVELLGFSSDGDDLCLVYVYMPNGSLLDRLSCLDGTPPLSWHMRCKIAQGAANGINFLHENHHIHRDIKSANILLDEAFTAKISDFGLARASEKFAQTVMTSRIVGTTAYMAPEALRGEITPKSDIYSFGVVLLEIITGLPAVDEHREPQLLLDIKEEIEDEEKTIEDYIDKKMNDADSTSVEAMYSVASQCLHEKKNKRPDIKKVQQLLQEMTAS
Assay: IRAK4 MSD degradation in OCI-LY10
Assay type: cell-based
Settings: OCI-LY10, 4 hrs, MSD; read-out: IRAK4 MSD degradation in OCI-LY10 at 4 hrs: Average external-Abs DC50
assay-metric: DC50

CN(CCCOCCCc1ccc2c(c1)n(C)c(=O)n2C1CCC(=O)NC1=O)C[C@H]1CC[C@H](n2cc(NC(=O)c3coc(-c4ccnc(NCC5CC5)c4)n3)c(C(F)F)n2)CC1 (some centres unmarked) [I-62]
< 10 nM
Cn1c(=O)n(C2CCC(=O)NC2=O)c2cccc(CCCOCCCN3CCN([C@H]4CC[C@H](Nc5ncnc6ccc(CC#N)cc56)CC4)CC3)c21 (some centres unmarked) [I-269]
> 1000 nM
Cn1c(=O)n(C2CCC(=O)NC2=O)c2cccc(CN3CCC(OCC4CCN(C[C@H]5CC[C@H](n6cc(NC(=O)c7coc(-c8ccnc(NCC9CC9)c8)n7)c(C(F)F)n6)CC5)CC4)CC3)c21 (some centres unmarked) [I-248]
< 10 nM
O=C1CCC(n2c3ccc(CCCOCCOCCNCC4CCC(n5cc(NC(=O)c6coc(-c7ccnc(NCC8CC8)c7)n6)c(C(F)F)n5)CC4)cc3c3cccnc32)C(=O)N1 (centres unmarked) [I-47]
10 to 100 nM

Consider the record given below.
Query (molecule): CN(CCCOC1CCN(C[C@H]2CC[C@H](n3cc(NC(=O)c4cnn5ccc(N6CCOCC6)nc45)c(C(F)F)n3)CC2)CC1)c1cccc2c1C(=O)N(C1CCC(=O)NC1=O)C2=O (some centres unmarked) [I-212] ; field requested: DC50
10 to 100 nM
